experiment: gradient 5% acetonitrile 3 min, to 50% in 2 min, to 85% in 15 min, held 3 min, 100 µL/min; conditions: column: Zorbax Extend-C18 2.1 x 50 mm; eluents: water / acetonitrile, 0.1% formic acid
So I've got a bunch of molecules here, and I need their RP-LC retention time values.
Give your result as the value with the unit written after it.

>>> reported_result("CCn1cc(CN2CCC(C(=O)NC3CCCc4ccccc43)CC2)c2cc(OC)ccc21 (centres undefined)")
"760 s"
>>> reported_result("CCNC(=O)c1nc(-c2ccc(C)cc2)n2c1CCCCC2")
"738 s"
>>> reported_result("CCSc1nnc2c(n1)OC(c1cccn1C)N(C(C)=O)c1ccccc1-2 (centres undefined)")
"788 s"
>>> reported_result("O=C(COc1ccccc1)Nc1nc(-c2ccc(Cl)cc2)cs1")
"1130 s"
>>> reported_result("O=C(Nc1ccc2c(c1)OCCO2)N1CCCn2nc(-c3cccc(Cl)c3)cc2C1")
"919 s"

For each of the items listed, what is its RP-LC retention time?
1. CCn1nnc2ccc(-c3noc(-c4cccc(OC)c4)n3)cc21
2. Cc1cnc(CC2CCN(C(=O)N(C)C)C2)n1Cc1ccccc1 (centres undefined)
3. COC(=O)c1c(C)[nH]c(C(=O)N2CCC(CC(=O)NCc3cccc(OC)c3)CC2)c1C
4. CC(C)c1noc(-c2ccc(-n3cnc(C(=O)NC(C)c4ccc(F)cc4)c3)nc2)n1 (centres undefined)

A)
1: 1060 s; 2: 609 s; 3: 715 s; 4: 1020 s
